- Parameters: species or system rats
- Assay Setup: rat, in vivo, sc, 230 ug/kg;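 further: blood drawn at alternating time points, with three animals in each cohort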
Measurement Name: CL (mL/min/kg)
Answers are plain numbers, in mL/min/kg.

INPUT: # lookup: CL of CTP-OXM-CTP-CTP: oxyntomodulin with one CTP on the amino terminus and two on the carboxy terminus, SEQ ID NO: 15 (protein, CTP-OXM-CTP-CTP) MATGSRTSLLLAFGLLCLPWLQEGSASSSSKAPPPSLPSPSRLPGPSDTPILPQHSQGTFTSDYSKYLDSRRAQDFVQWLMNTKRNRNNIASSSSKAPPPSLPSPSRLPGPSDTPILPQSSSSKAPPPSLPSPSRLPGPSDTPILPQ
OUTPUT: 11.038
